Target: Calcium and integrin-binding protein 1 (Homo sapiens)
Assay: Confirmatory qHTS for Identification of Calcium Integrin Binding Protein 1 (CIB1) Competitor (AID 1508617); further: nearly all actives have a fitted effect of over 65% in size
Conditions: CIB1 binding competition assay, biochemical qHTS; series mostly up to 114 µM
Description: Assay Provider: Ulhas P. Naik, PhD Sidney Kimmel Medical College Thomas Jefferson University, Philadelphia, PA Primary function of platelets is to maintain hemostasis. At the site of vascular injury, platelets adhere to adhesive proteins such as collagen and von Willebrand factor. […] To develop fluorescence polarization (FP) assay using fluorescently labeled alphaIIb peptide and CIB1 protein. […] 7; Detection; Ex 480/ Em 540; ViewLux Fluorescence Read […]
Results filed as inconclusive are left out. Active and inactive are the calls of the source. The call rests on the fitted dose curve; in most records, active means well fitted inhibition curve with a large enough effect; inconclusive means small, poorly fitted or top-dose-only effect; inactive means no such curve, though single readings can be large or run the other way.
Classes used: TRUE (active), FALSE (inactive)

# MOLECULE, DISCRETE_LABEL
records = [
    ("Cc1cnc(-c2ccccc2C(C)C)nc1NCc1ccc(-c2ccc(F)nc2)cc1", "TRUE"),
    ("COC(=O)c1ccc(O)c2ncc(-c3ccc(C(=O)NCCCN(C)C)cc3)cc12", "FALSE"),
    ("NC(=O)C1CCN(c2nc(-c3ccccc3N)cs2)CC1", "FALSE"),
    ("CN1CCN(c2ccc(-c3cc(O)c4ncccc4c3)cc2)CC1", "FALSE"),
    ("CCOc1ccc(CCNC(C)=O)cc1OCC", "FALSE"),
    ("O=[S+]([O-])(Nc1nccs1)c1ccc(NCc2cc(Cl)cc(Br)c2O)cc1", "FALSE"),
    ("N#Cc1ccc(N[S+](=O)([O-])c2ccc(Nc3nc(-c4ccccc4)cs3)cc2)cc1", "TRUE"),
    ("O=C(O)c1ccc(O)c2ncc(N3CCC(N4CCOCC4)C3)cc12 (stereo unspecified)", "FALSE"),
    ("CCOC(=O)c1[nH]c2c(c1C)C(=S)CC(c1ccco1)C2 (stereo unspecified)", "TRUE"),
    ("COc1ccccc1Nc1cc2ccccc2c(=O)[nH]1", "TRUE"),
    ("NC[C@@H](O)c1ccc(O)c(O)c1", "FALSE"),
]
